test: NCI Yeast Anticancer Drug Screen. Data for the rad14 strain (AID 159);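 note: 0% = growth of vehicle-treated control cultures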; conditions: S. cerevisiae rad14 strain growth inhibition; at 100.0 µM; stronger effect = higher value
The panel holds about 79,000 compounds, 15% with a hit somewhere; the sample as a whole holds those more often. Active and inactive are the calls of the source. Cut-off read from the data, not from the text of the source: active = growth inhibition above about 70%; inactive = the rest.
# maps each entry to its growth inhibition

>  <Compound>
OC(c1ccccc1)(c1ccccc1)c1nccc2ccccc12

>  <growth inhibition>
39% (inactive)

$$$$
>  <Compound>
CCCCS(=O)(=O)Nc1ccc(Nc2c3ccccc3nc3ccccc23)c(OC)c1

>  <growth inhibition>
96% (active)

$$$$
>  <Compound>
Brc1ccc(B2Nc3ccccc3N2)cc1

>  <growth inhibition>
63% (inactive)

$$$$
>  <Compound>
O=C1SS(=O)c2ccccc21 (configuration not stated)

>  <growth inhibition>
61% (inactive)

$$$$
>  <Compound>
N#CCC(=O)N/N=C(\c1ccccc1)C(c1ccccc1)C1(O)C(=O)Nc2c(Cl)ccc(Cl)c21 (configuration not stated)

>  <growth inhibition>
39% (inactive)

$$$$
>  <Compound>
CCCCCCCCCCCNC=O

>  <growth inhibition>
98% (active)

$$$$
>  <Compound>
CC(C)OP(=O)(OC(C)C)C(=NCCO)NNc1ccc([N+](=O)[O-])cc1

>  <growth inhibition>
42% (inactive)

$$$$
>  <Compound>
O=[N+]([O-])c1ccc(S(=O)(=O)Cc2ccccc2)c([N+](=O)[O-])c1

>  <growth inhibition>
99% (active)

$$$$
>  <Compound>
NC(=S)N/N=C1\c2ccccc2CCC1CCC1(O)CCc2ccccc2C1=O (configuration not stated)

>  <growth inhibition>
86% (active)

$$$$
>  <Compound>
O=C1C(=O)N(c2ccccc2)[C@@]2(c3ccccc3)C(=Nc3ccccc3)OC(c3ccccc3)=C12

>  <growth inhibition>
57% (inactive)

$$$$
>  <Compound>
O=C(/N=N/C(=O)Oc1ccccc1)Oc1ccccc1

>  <growth inhibition>
5% (inactive)

$$$$
>  <Compound>
Cc1cc(OCc2nc(N)nc(N)c2-c2ccc(Cl)c(Cl)c2)ccc1[N+](=O)[O-]

>  <growth inhibition>
3% (inactive)

$$$$

----------
Test: NCI Yeast Anticancer Drug Screen. Data for the mec2-1 strain (AID 157)
Conditions: S. cerevisiae mec2-1 strain, at 50.0 µM (retest, dose inferred, filed as 5.0)
Procedure: Growth inhibition of yeast strains with defined genetic alterations is measured as a screen for potential anti-cancer activity. Selected strains with alterations in DNA damage repair or cell cycle control were exposed to compounds and growth inhibition was measured relative to vehicle treated controls. The strain used in this assay is mec2-1
About 79,000 compounds went through this panel and 15% of them were active in at least one assay; those are over-represented in the sample as a whole. Calls of active or inactive are those of the source. Cut-off read from the data, not from the text of the source: active = growth inhibition above about 70%; inactive = the rest.
Labels: Yes = active, No = inactive

>  <Molecule>
O=C(NCCCCN(CCCNC(=O)C(F)(F)F)Cc1ccccc1)C(F)(F)F

>  <Classification>
Yes

$$$$
>  <Molecule>
Cc1cccc2c1C1c3c(C)cccc3C(CC(=O)O)CC1CC2 (stereo not given)

>  <Classification>
Yes

$$$$
>  <Molecule>
NC(N)=NC(N)=Nc1ccccc1 (tested in a mixture with another compound)

>  <Classification>
No

$$$$
>  <Molecule>
CC1=COC2=C(C)C(=O)C(=O)c3c(C)ccc1c32

>  <Classification>
No

$$$$
>  <Molecule>
CNC(=S)N/N=C(/C)CCC/C(C)=N/NC(=S)NC

>  <Classification>
No

$$$$
>  <Molecule>
N#CCC(=O)N/N=C(\c1ccccc1)C(c1ccccc1)C1(O)C(=O)Nc2c(Cl)ccc(Cl)c21 (stereo not given)

>  <Classification>
No

$$$$
>  <Molecule>
c1ccc([P+](CCN2Cc3ccccc3C2)(c2ccccc2)c2ccccc2)cc1

>  <Classification>
Yes

$$$$
>  <Molecule>
NC(N)=NS(=O)(=O)c1ccc(Nc2c3ccccc3nc3c(C(=O)NC(CO)(CO)CO)cccc23)cc1

>  <Classification>
No

$$$$
>  <Molecule>
CC1=CC(=O)C=CC1=Nc1cc(Cl)c(O)c(Cl)c1

>  <Classification>
No

$$$$
>  <Molecule>
COc1ccc2cc3c4cc5c(cc4cc[n+]3cc2c1OC)OCO5

>  <Classification>
Yes

$$$$
>  <Molecule>
COc1cc2oc3ccccc3c(=O)c2cc1CSc1ccccc1N

>  <Classification>
No

$$$$
>  <Molecule>
O=C(O)CNC(c1ccccc1)(c1ccccc1)c1ccccc1

>  <Classification>
Yes

$$$$
>  <Molecule>
C/C(=N\OCC(O)CNCCSCc1ccccc1)c1ccccc1Cl (stereo not given)

>  <Classification>
No

$$$$
>  <Molecule>
CC(C)C(=O)CC(Sc1ccc(N)cc1)c1ccccc1 (stereo not given)

>  <Classification>
Yes

$$$$
>  <Molecule>
O=S(=O)(NC1CCCC(c2ccccc2)C1)c1ccccc1 (stereo not given)

>  <Classification>
No

$$$$
